- ASSAY_COMMENT: Steady-state exposure of ulixertinib and metabolites in rat
- Assay type: in vivo
- CONDITION_CONTEXT: day 5, steady state
MEASURED_QUANTITY: % of total Ulixertinib related exposure (%)

MOLECULE | MEASURED_QUANTITY | READOUT_NUMBER
C[C@H](CO)Nc1cc(-c2c[nH]c(C(=O)N[C@H](CO)c3cccc(Cl)c3)c2)c(Cl)cn1 | % of total Ulixertinib related exposure | 8.1
C[C@H](Nc1cc(-c2c[nH]c(C(=O)N[C@H](CO)c3cccc(Cl)c3)c2)c(Cl)cn1)C(=O)O | % of total Ulixertinib related exposure | 0.2

1 = C[C@@H](CO)Nc1cc(-c2c[nH]c(C(=O)N[C@H](CO)c3cccc(Cl)c3)c2)c(Cl)cn1
2 = CC(C)Nc1cc(-c2c[nH]c(C(=O)N[C@H](CO)c3cccc(Cl)c3)c2)c(Cl)cn1 [Ulixertinib, reference compound]
Request: Returns the identifier with the smallest measured % of total Ulixertinib related exposure among 1 and 2 . Indicate your choice by writing its label.
Response: 1
